- subject.of.test: PmST1 WT (sialidase activity of α2-3-sialyltransferase 1 in the presence of CMP) (Pasteurella multocida, UniProt Q15KI8)
- Construct: made in house
- measurement.notes: biochemical
- study.conditions: read-out: percent inhibition against PmST1 WT
endpoint: inhibition at 8 µM (%)
Reply with just the number (in %).

Req: Consider the molecule CC(=O)N[C@@H]1C(N=[N+]=[N-])C[C@](OCC2O[C@@H](Oc3ccc([N+](=O)[O-])cc3)C(O)C(O)[C@H]2O)(C(=O)O)OC1[C@H](O)[C@H](O)CO (some centres unmarked) [4N3Neu5Acα2-6GalβpNP] and give its measured inhibition at 8 µM.
Resp: 41.3

Req: Another: CC(=O)N[C@H]1[C@H]([C@H](O)[C@H](O)CO)O[C@@](O[C@H]2[C@@H](O)[C@@H](CO)O[C@@H](Oc3ccc([N+](=O)[O-])cc3)[C@@H]2O)(C(=O)O)C[C@@H]1OC(C)=O [Neu4,5Ac2α2-3GalβpNP, Neu4,5Acα2-3GalβpNP, reference compound]
Resp: 38.7

----------
- subject.of.test: NB-Aus21 (IBV neuraminidase) (Influenza B virus)
- measurement.notes: biochemical
- Set-up: species or system influenza B virus B/Austria/1359417/2021
- study.conditions: inhibitor 8.0 μM, substrate Neu5Acα2-3GalβMU 8.0 μM; Example 2, Table 2; read-out: Percentage inhibition against NB-Aus21 (IBV)
Assignment: determine reported inhibition at 8 µM for the given molecules.
Give the number; % is assumed, so skip it.

Req: Look at this molecule and give its reported inhibition at 8 µM. CC(=O)N[C@@H]1C(O)C[C@](OCC2O[C@@H](Oc3ccc([N+](=O)[O-])cc3)C(O)C(O)[C@H]2O)(C(=O)O)OC1[C@H](O)[C@H](O)CO (stereo partly drawn) [Neu5Acα2-6GalβpNP, reference compound]
Resp: 25.8

Req: Now give it for CC(=O)N[C@H]1[C@H]([C@H](O)[C@H](O)CO)O[C@@](O[C@H]2[C@@H](O)[C@@H](CO)O[C@@H](Oc3ccc([N+](=O)[O-])cc3)[C@@H]2O)(C(=O)O)C[C@@H]1OC(C)=O [Neu4,5Ac2α2-3GalβpNP, Neu4,5Acα2-3GalβpNP, reference compound] too.
Resp: 20.9

Req: Okay, and CC(=O)N[C@@H]1C(N)C[C@](OCC2O[C@@H](Oc3ccc([N+](=O)[O-])cc3)C(O)C(O)[C@H]2O)(C(=O)O)OC1[C@H](O)[C@H](O)CO (stereo partly drawn) ?
Resp: 36

----------
Data export: IC50 values recorded with NB-Phu13 (IBV neuraminidase) (Influenza B virus, UniProt A0A1S5RAG6).
Number only, in nM; omit the unit.

Req: Please give the measured IC50 for this compound: CC(=O)N[C@H]1[C@H]([C@H](O)[C@H](O)CO)OC(C(=O)O)=C[C@@H]1N=[N+]=[N-] [Compound 4N3Neu5Ac2en, 4N3Neu5Ac2en]
Resp: 1400

Req: Now consider CC(=O)N[C@H]1[C@H]([C@H](O)[C@H](O)CO)OC(C(=O)O)=C[C@@H]1O [Neu5Ac2en, 2,3-dehydro-N-acetylneuraminic acid, reference compound] and answer again.
Resp: 1600

----------
Give measured percentage inhibition against N2-Dar21 for each item. Keep answers brief.
- subject.of.test: N2-Dar21 (IAV neuraminidase) (Influenza A virus)
- measurement.notes: Fluorescence-based inhibition assay (substrate Neu5Acα2-3GalβMU, β-galactosidase coupled)
- Assay type: biochemical, influenza A virus A/Darwin/9/2021 (H3N2)
- study.conditions: inhibitor 8.0 μM; Example 3, Table 4
Answers without a unit are incomplete; give the number and then its unit.

Req: Which percentage inhibition against N2-Dar21 value is on record for CC(=O)N[C@H]1[C@H]([C@H](O)[C@H](O)CO)OC(C(=O)O)=C[C@@H]1N [4NH2Neu5Ac2en, reference compound] ?
Resp: 94.6%

Req: Same question for CC(=O)N[C@H]1[C@H]([C@H](O)[C@H](O)CO)OC(C(=O)O)=C[C@@H]1NC(C)=O please.
Resp: 2.4%

Req: Could you do the same for CC(=O)N[C@H]1[C@H]([C@H](O)[C@H](O)CO)OC(C(=O)O)=C[C@@H]1O [Neu5Ac2en, 2,3-dehydro-N-acetylneuraminic acid, reference compound] , please?
Resp: 49.9%

Req: Now the same for CC(=O)N[C@H]1[C@H]([C@H](O)[C@H](O)CO)OC(C(=O)O)=C[C@@H]1N=[N+]=[N-]
Resp: 22.1%
